Target: Proteasome subunit beta type-9 (Homo sapiens)
Sequence (P28065 whole entry): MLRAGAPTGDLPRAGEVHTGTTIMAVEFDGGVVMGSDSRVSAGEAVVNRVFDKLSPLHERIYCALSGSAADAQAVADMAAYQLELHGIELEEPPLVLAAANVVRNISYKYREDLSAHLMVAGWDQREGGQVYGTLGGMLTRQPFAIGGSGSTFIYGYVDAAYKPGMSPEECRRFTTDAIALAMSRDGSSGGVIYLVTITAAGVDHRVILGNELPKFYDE
Assay: Inhibition of 20s immunoproteasome LMP2 in human erythrocytes using Ac-Pro-Ala-Leu-MCA as substrate preincubated for 10 mins followed by substrate addition and measured after 6 hrs by fluorescence assay
Exercise: for every item that follows, state its recorded IC50.
# value in µM; strip the unit string

**Query** Recall the recorded IC50 for `C1=C\CCc2cc3c[n+](c2)CCCC/C=C\CC[C@@H]2CN(CCCC/1)CC[C@@H]32` with Proteasome subunit beta type-9 (Homo sapiens) and state it.
**Result** 3.1

**Query** What do you have for `C1=C2CN3CCCC/C=C\CC[C@@H]4CN(CCCC/C=C\CC[C@H]1C3)CC[C@@H]24` ?
**Result** 0.44
